Reference source: patent US20120195831A1

As shown below, each of these binders has a reported Kd value.
- experimental_system: T1, Recombinant Human Her3 (Her3/ErbB3 extracellular domain) (human, UniProt P21860 20-643)
- T1 construct: Analyte of the BIAcore assay; also called Her3 ECD; human Her3/ErbB3 extracellular domain
- T1 sequence (P21860 20-643 limits assumed): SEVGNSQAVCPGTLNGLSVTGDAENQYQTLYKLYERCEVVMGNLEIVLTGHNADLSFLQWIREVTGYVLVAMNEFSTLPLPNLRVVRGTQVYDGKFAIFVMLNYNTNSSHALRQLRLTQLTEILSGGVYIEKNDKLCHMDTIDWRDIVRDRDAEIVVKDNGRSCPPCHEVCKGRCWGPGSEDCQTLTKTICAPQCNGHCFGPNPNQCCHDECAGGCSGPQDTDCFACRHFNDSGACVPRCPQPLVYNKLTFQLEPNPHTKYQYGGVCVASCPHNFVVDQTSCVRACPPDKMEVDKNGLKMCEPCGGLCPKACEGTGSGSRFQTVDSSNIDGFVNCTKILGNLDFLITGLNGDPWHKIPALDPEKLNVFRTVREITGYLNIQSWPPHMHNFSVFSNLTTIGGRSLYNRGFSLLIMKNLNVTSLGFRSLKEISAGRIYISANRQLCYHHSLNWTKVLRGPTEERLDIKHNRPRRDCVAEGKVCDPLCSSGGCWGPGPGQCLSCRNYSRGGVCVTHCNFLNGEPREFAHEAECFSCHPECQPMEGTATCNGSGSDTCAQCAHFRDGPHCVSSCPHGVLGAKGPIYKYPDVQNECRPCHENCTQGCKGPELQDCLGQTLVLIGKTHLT
- procedure_details: SPR (BIAcore), Mab captured by anti-IgG Fc on CM5 chip, recombinant human Her3 as analyte, 25 °C
measurement_name: Kd (nM)

[
  {
    "binder": "588E22 (antibody, V domains shown, Purified mouse IgG from a hybridoma; also called 588E22-HC; 588E22-LC) VH: DVQLQESGPELVGPGESVKISCKGSGYTFTDYGMHWVKQSHAKRLEWIGVITIYDGHTNYNQNFKGKAALTVDKSSNTAYPELARMTSEDSAIYYCARGDYDLFWYLDVWGAGTTVTVSS VL: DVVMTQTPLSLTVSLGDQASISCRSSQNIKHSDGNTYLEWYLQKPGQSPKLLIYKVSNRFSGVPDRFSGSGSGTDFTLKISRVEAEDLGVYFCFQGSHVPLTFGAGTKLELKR",
    "val": 2.78
  },
  {
    "binder": "588E14 (antibody, V domains shown, Purified mouse IgG from a hybridoma; also called 588E14-HC; 588E14-LC) VH: EVQLQQSGPELVGPGESVKISCKGSGYAFTDYGMHWVKQSHAKRLEWIGVITIYDGHTNYNQNFKGKAALTVDKSSNTAYLELARMTSEDSAIYYCARGDYDLFWYLDVWGAGTSVTVSS VL: DIVMTQTPLSLTVSLGDQASISCRSSQNIKHSDGNTYLEWYLQKPGQSPKLLIYKVSNRFSGVPDRFSGSGSGTDFTLKISRVEAEDLGVYFCFQGSHVPLTFGAGTKLELKR",
    "val": 3.04
  },
  {
    "binder": "588F42 (antibody, V domains shown, Purified mouse IgG from a hybridoma; also called 588F42-HC; 588F42-LC) VH: EVQLQQSGPELVKPGASVKMSCKASGYTFTSYVMHWVKQKPGQGLEWLGYINPYNDGTKYNEKFKGKATLTSDKSSSTAYMELISLTSEDSAVYYCAREASYGNPFAYWGQGTLVTVSA VL: DIVMTQSPASLSASVGETVTITCRTSENIYSYLAWFQQKQGNSPQLLVYNTKTLAEGVPSRFSGSGSGTQFSLKINSLQPEDFGNYYCQHHYDTPWTFGGGTKLEIK",
    "val": 3.8
  },
  {
    "binder": "588F41 (antibody, V domains shown, Purified mouse IgG from a hybridoma; also called 588F41-HC; 588F41-LC) VH: EVQLQQSGPELVKPGASVKMSCKASGYTFTSYVMHWVKQKPGQGLEWLGYINPYNDGTKYNEKFKGMATLTSDKSSSTAYMELISLTSEDSAVYYCAREASYGNPFAYWGQGTLVTVSA VL: DIVMTQSPASLSASVGETVTITCRTSENIYSYLAWFQQKQGNSPQLLVYNTKTLAEGVPSRFSGSGSGTQFSLKINSLQPEDFGNYYCQHHYDTPWTFGGGTKLEIKR",
    "val": 3.2
  },
  {
    "binder": "PO-3H7-E3 (antibody, V domains shown, Purified mouse IgG from a hybridoma; also called PO-3H7-E3-HC; PO-3H7-E3-LC) VH: EVQLQQSGAELVKPGASVKISCKASGYSFTGYYMNWVKQSHGKSLEWIGNINPYYGGSNYNQKFKARATLTVDKSSSTAYMQLNSLTSEDSAVYYCARKGDLYYSMDYWGQGTSVTVSS VL: DIVMTQTPLSLPVSLGDQASISCRSSQSIVHSNGNTYLEWYLQKPGQSPKLLIYKVSNRFSGVPDRFSGSGSGTDFTLKISRVEAEDLGIYYCFQGSHVPPTFGGGTKLELKR",
    "val": 1.6
  },
  {
    "binder": "PO-1C9-C4 (antibody, V domains shown, Purified mouse IgG from a hybridoma; also called PO-1C9-C4-HC; PO-1C9-C4-LC) VH: QVQLQQPGSELVRPGASVKLSCKASGYTFTIFWIHWVKQRPGQGLEWIGNIYPGSGGTNYDEKFKSKATLTVDTFSSTAYMQLSSLTSEDSAVYYCTRWGTGKDYWGQGTTLTVSS VL: DIVLTQSPAIMSASPGEKVTMTCRARSSVSSSYLHWYQQKPGSSPKLWIYSTSNLALGVPARFSGSGSGTSYSLTISSVEAEDAATYYCQQYDSSPFTFGTGTKLEIKR",
    "val": 2.4
  }
]
